# Measured target: IRE1α (Homo sapiens, UniProt O75460, D688N)
# Construct: containing the kinase and RNase domains (KR, AA G547-1L977, D688N)
# Sequence (O75460 547-977 D688N): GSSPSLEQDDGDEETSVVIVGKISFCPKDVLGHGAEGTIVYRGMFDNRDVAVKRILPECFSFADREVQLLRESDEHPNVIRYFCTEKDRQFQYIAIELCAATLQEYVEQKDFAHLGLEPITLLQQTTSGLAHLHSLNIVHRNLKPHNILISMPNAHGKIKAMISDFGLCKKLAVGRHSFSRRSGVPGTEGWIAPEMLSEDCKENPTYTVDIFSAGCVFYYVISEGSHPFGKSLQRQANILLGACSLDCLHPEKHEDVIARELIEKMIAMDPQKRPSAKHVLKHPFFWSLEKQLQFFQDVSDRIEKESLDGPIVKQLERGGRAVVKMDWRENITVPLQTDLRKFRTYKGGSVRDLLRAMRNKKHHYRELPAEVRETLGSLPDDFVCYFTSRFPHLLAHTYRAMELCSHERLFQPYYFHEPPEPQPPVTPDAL
# Assay comment: IRE1α TR-FRET competition binding assay (IRE1α HTRF)
# Stated conditions: His-tagged IRE1α kinase dead construct (KR, D688N) 0.25 nM; Alexa fluor 647-labeled ATP competitive probe 2 nM; one hour at room temperature; read-out: IRE1α (alpha) HTRF (IC50)
pIC50: −log10 of the molar value.
Observation type: pIC50

Some molecules with recorded pIC50:
{"Molecule": "CCC(F)(F)CS(=O)(=O)Nc1ccc(-c2cc(C)c3nc(N[C@H]4CC[C@H](N(C)C)CC4)ncc3n2)cc1F", "Value reported": 9.96}
{"Molecule": "Cc1cc(-c2ccc(NS(=O)(=O)CCC(F)(F)F)c(F)c2)nc2cnc(N[C@@H]3CNC[C@@H](F)C3)nc12", "Value reported": 8.96}
{"Molecule": "CN(C)[C@H]1CC[C@H](Nc2ncc3nc(-c4ccc(NS(=O)(=O)CCC(F)(F)F)c(F)c4)cc(C(F)F)c3n2)CC1", "Value reported": 9.80}

(P) Cc1nc(NS(=O)(=O)c2ccccc2C#N)ccc1-c1cc(C)c2nc(N[C@H]3CC[C@H](N(C)C)CC3)ncc2n1
(Q) CC(Oc1nc2nc(N[C@@H]3CNC[C@@H](F)C3)ncc2cc1-c1ccc(NS(=O)(=O)Cc2ccccc2)c(F)c1F)C(F)F (single isomer, unassigned) [Compound 103]
(R) Cc1cc(-c2ccc(NS(=O)(=O)CCC(F)(F)F)c(F)c2)nc2cnc(N[C@H]3CC[C@H](N(C)C)CC3)nc12
Asked: Rank the items in ascending order with respect to pIC50. Write the labels out in the order the request specifies.
Given back: Q, P, R

Cited source for all entries: patent US20220204498A1
